target_or_test_system: control:Baker_PD-L1, Q9NZQ7
Sequence (Q9NZQ7 whole entry): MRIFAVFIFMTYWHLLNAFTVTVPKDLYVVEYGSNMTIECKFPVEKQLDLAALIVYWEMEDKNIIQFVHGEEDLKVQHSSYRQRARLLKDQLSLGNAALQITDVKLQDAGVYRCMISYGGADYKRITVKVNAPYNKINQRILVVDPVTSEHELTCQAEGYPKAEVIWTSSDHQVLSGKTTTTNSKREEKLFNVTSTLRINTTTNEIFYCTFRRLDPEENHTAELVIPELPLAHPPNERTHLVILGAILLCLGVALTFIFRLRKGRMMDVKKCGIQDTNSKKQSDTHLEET
reported_property: binding in a display sort

Pdl1_binder_AF2_64 (protein) EEEEKKEKANLLRVEAAQKLSLVAEALPEVREKALEAIRKIFDKETIEEGVELAREIAERVAAEGTEEQARLAREAVEKAEEALKLEK; not found (inactive)
Pdl1_binder_AF2_33 (protein) MEEAKRVAEQMALMMRAAGEEASVEVEGDKITIYYKGDDESLWEVAESVAEKIEEKYGVEVEVVR; not found (inactive)
Pdl1_binder_AF2_87 (protein) ERREELEAIAKATESLAELLELGEKDPEVRKAALRAAQIVAERLAERAEELGAEEAAELLRKAAEDPENALRYVREAAEKLRAEAEAL; not found (inactive)
